# method: Inhibition of geranylgeranyl transferase
reported property: IC50 (µM)

Prompt line: Please give the documented IC50 of Cc1ccccc1CN1Cc2ccccc2CC(NCc2cncn2Cc2ccc(C#N)cc2)C1=O (stereo not drawn)
Response line: 7.1

(P) N#Cc1ccc(Cn2cncc2CNC2C(=O)N(c3cccc(Cl)c3)CCc3ccccc32)cc1 (racemic)
(Q) N#Cc1ccc(Cn2cncc2CN[C@H]2Cc3ccccc3CN(c3cccc(Cl)c3)C2=O)cc1
Prompt line: Which shows the larger IC50 value: P or Q ? Mark your selection by writing its label.
Response line: Q
(Q: 25 µM, P: 7.7 µM)

* * *

# method: Inhibitory activity against v-H-Ras gene transfected cell line
# Type: functional
pIC50: −log10 of the molar value.
reported property: pIC50

Solved cases (3 shown):
Prompt line: Please give the documented pIC50 of N#Cc1ccc(Cn2cncc2CNC2Cc3ccccc3CN(c3cccc(Br)c3)C2=O)cc1 (racemic)
Response line: 8.30

Prompt line: Please give the documented pIC50 of COc1cccc(N2Cc3ccccc3CC(NCc3cncn3Cc3ccc(C#N)cc3)C2=O)c1 (racemic)
Response line: 7.82

Prompt line: Please give the documented pIC50 of N#Cc1ccc(Cn2cncc2CNC2C(=O)N(c3cc(F)cc(F)c3)CCc3ccccc32)cc1 (stereo not given)
Response line: 7.07

(a) N#Cc1ccc(Cn2cncc2CNC2Cc3ccccc3CN(c3ccccc3)C2=O)cc1 (racemic)
(b) N#Cc1ccc(Cn2cncc2CNC2Cc3ccccc3CN(Cc3ccc(F)cc3F)C2=O)cc1 (stereo not given)
Prompt line: Which shows the larger pIC50 value: a or b ? Mark your selection by writing its label.
Response line: a
(a: 7.44, b: 6.94)

* * *

# method: Inhibitory activity against v-H-Ras gene transfected cell line
# Assay type: functional
reported property: IC50 (nM)

Prompt line: Please give the documented IC50 of N#Cc1ccc(Cn2cncc2CNC2Cc3ccccc3CN(Cc3cc(F)cc(F)c3)C2=O)cc1 (stereo not given)
Response line: 16

(a) N#Cc1ccc(Cn2cncc2CNC2Cc3ccccc3CN(Cc3ccccc3)C2=O)cc1 (stereo not given)
(b) N#Cc1ccc(Cn2cncc2CNC2C(=O)N(Cc3cccc(F)c3)CCc3ccccc32)cc1 (stereo not given)
(c) N#Cc1ccc(Cn2cncc2CNC2Cc3ccccc3CN(c3cc(F)cc(F)c3)C2=O)cc1 (stereo not given)
(d) N#Cc1ccc(Cn2cncc2CNC2Cc3ccccc3CN(Cc3cccc(Cl)c3)C2=O)cc1 (stereo not given)
Prompt line: Output the entries ranked by IC50 from maximum down to minimum. A complete answer lists every label in the requested sequence.
Response line: b, c, a, d

* * *

# test system: Protein farnesyltransferase (Homo sapiens, UniProt P49354+P49356)
# method: Inhibition of farnesyltransferase
# Format: protein-complex assay
reported property: IC50 (nM)

Solved cases (3 shown):
Prompt line: Please give the documented IC50 of N#Cc1ccc(Cn2cncc2CNC2Cc3ccccc3CN(Cc3ccccc3Cl)C2=O)cc1 (centres undefined)
Response line: 10

Prompt line: Please give the documented IC50 of N#Cc1ccc(Cn2cncc2CNC2C(=O)N(Cc3cccc(F)c3)CCc3ccccc32)cc1 (centres undefined)
Response line: 78

Prompt line: Please give the documented IC50 of N#Cc1ccc(Cn2cncc2CNC2Cc3ccccc3CN(Cc3ccc(Cl)cc3Cl)C2=O)cc1 (centres undefined)
Response line: 142

(A) N#Cc1ccc(Cn2cncc2CN[C@H]2CCCCN(Cc3ccccc3)C2=O)cc1
(B) N#Cc1ccc(Cn2cncc2CNC2Cc3ccccc3CN(CC3CCCCC3)C2=O)cc1 (centres undefined)
(C) N#Cc1ccc(Cn2cncc2CNC2Cc3ccccc3CN(c3cccc(Br)c3)C2=O)cc1 (racemic)
Prompt line: Output the entries ranked by IC50 from maximum down to minimum. A complete answer lists every label in the requested sequence.
Response line: B, C, A

(I) Cc1ccccc1CN1Cc2ccccc2CC(NCc2cncn2Cc2ccc(C#N)cc2)C1=O (centres undefined)
(II) N#Cc1ccc(Cn2cncc2CNC2Cc3ccccc3CN(c3ccccc3)C2=O)cc1 (racemic)
(III) COc1cccc(N2Cc3ccccc3CC(NCc3cncn3Cc3ccc(C#N)cc3)C2=O)c1 (racemic)
(IV) Cc1ccccc1CN1CCc2ccccc2C(NCc2cncn2Cc2ccc(C#N)cc2)C1=O (centres undefined)
Prompt line: Arrange the 4 compounds by rising IC50, starting with the smallest. A complete answer lists every label in the requested sequence.
Response line: I, III, II, IV

(I) N#Cc1ccc(Cn2cncc2CNC2Cc3ccccc3CN(Cc3ccccc3)C2=O)cc1 (centres undefined)
(II) N#Cc1ccc(Cn2cncc2CNC2Cc3ccccc3CN(c3cccc(F)c3)C2=O)cc1 (racemic)
(III) N#Cc1ccc(Cn2cncc2CNC2C(=O)N(c3cc(F)cc(F)c3)CCc3ccccc32)cc1 (centres undefined)
Prompt line: Arrange the 3 compounds by rising IC50, starting with the smallest. A complete answer lists every label in the requested sequence.
Response line: II, I, III
(II: 9 nM, I: 17 nM, III: 62 nM)

(I) N#Cc1ccc(Cn2cncc2CNC2Cc3ccccc3CN(Cc3cc(F)cc(F)c3F)C2=O)cc1 (centres undefined)
(II) N#Cc1ccc(Cn2cncc2CNC2Cc3ccccc3CN(c3cc(F)cc(F)c3)C2=O)cc1 (centres undefined)
(III) N#Cc1ccc(Cn2cncc2CNC2Cc3ccccc3CN(Cc3ccc(F)cc3F)C2=O)cc1 (centres undefined)
Prompt line: Arrange the 3 compounds by rising IC50, starting with the smallest. A complete answer lists every label in the requested sequence.
Response line: II, I, III
(II: 10 nM, I: 18 nM, III: 55 nM)

(I) N#Cc1ccc(Cn2cncc2CNC2C(=O)N(Cc3cccc(Cl)c3)CCc3ccccc32)cc1 (centres undefined)
(II) N#Cc1ccc(Cn2cncc2CNC2Cc3ccccc3CN(Cc3cc(F)cc(F)c3)C2=O)cc1 (centres undefined)
(III) N#Cc1ccc(Cn2cncc2CNC2Cc3ccccc3CN(c3cccc([N+](=O)[O-])c3)C2=O)cc1 (racemic)
Prompt line: Arrange the 3 compounds by rising IC50, starting with the smallest. A complete answer lists every label in the requested sequence.
Response line: II, III, I

(A) N#Cc1ccc(Cn2cncc2CNC2C(=O)N(Cc3cccc(Br)c3)CCc3ccccc32)cc1 (centres undefined)
(B) N#Cc1ccc(Cn2cncc2CNC2C(=O)N(c3ccccc3)CCc3ccccc32)cc1 (centres undefined)
Prompt line: Which shows the larger IC50 value: A or B ? Mark your selection by writing its label.
Response line: B
(B: 54 nM, A: 22 nM)

(I) N#Cc1ccc(Cn2cncc2CNC2Cc3ccccc3CN(c3cc(Cl)cc(Cl)c3)C2=O)cc1 (centres undefined)
(II) N#Cc1ccc(Cn2cncc2CNC2C(=O)N(Cc3cc(F)cc(F)c3)CCc3ccccc32)cc1 (centres undefined)
Prompt line: Which shows the larger IC50 value: I or II ? Mark your selection by writing its label.
Response line: II
(II: 26 nM, I: 15 nM)
